# target.entity: T1, TRCW5 antigen (CD3δε-Fc-Avi) (biotinylated (site not stated))
# T1 construct: also called recombinant CD3
# method: binding after heat
assay.metric: % Retained 65° C. (%)
API: value field is a number in %; no unit string.

INSERT INTO results (binder, recorded_number) VALUES
  ('CD3B2030 N106F (scFv) scFv: QVQLVQSGAEVKKPGSSVKVSCKASGYTFTRSTMHWVKQAPGQGLEWIGYINPSSAYTNYNQKFQGRVTLTADKSTSTAYMELSSLRSEDTAVYYCASPQVHYDYFGFPYWGQGTLVTVSSGGSEGKSSGSGSESKSTGGSEIVLTQSPATLSASPGERVTLSCSASSSVSYMNWYQQKPGQAPRRWIYDSSKLASGVPARFSGSGSGRDYTLTISSLEPEDFAVYYCQQWSRNPPTFGGGTKVEIK', 21.8);

Field: next binder
**Query** Give a short answer stating reported % Retained 65° C. for CD3B2030 N106G (scFv) scFv: QVQLVQSGAEVKKPGSSVKVSCKASGYTFTRSTMHWVKQAPGQGLEWIGYINPSSAYTNYNQKFQGRVTLTADKSTSTAYMELSSLRSEDTAVYYCASPQVHYDYGGFPYWGQGTLVTVSSGGSEGKSSGSGSESKSTGGSEIVLTQSPATLSASPGERVTLSCSASSSVSYMNWYQQKPGQAPRRWIYDSSKLASGVPARFSGSGSGRDYTLTISSLEPEDFAVYYCQQWSRNPPTFGGGTKVEIK .
**Result** 1.7
